molecular target: griffithsin (GRFT) (Griffithsia sp., UniProt P84801); type: binding; conditions: isothermal titration calorimetry, binding to GRFT; value ± spread
Sequence (P84801 whole entry): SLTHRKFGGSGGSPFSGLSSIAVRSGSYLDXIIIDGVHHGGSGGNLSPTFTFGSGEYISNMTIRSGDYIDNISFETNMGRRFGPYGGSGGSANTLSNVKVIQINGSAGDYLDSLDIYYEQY
Property name: n (stoichiometry of binding)
// return a plain number; no unit text

For record CC(=O)N[C@@H](CCCCNC(=O)CO[C@H]1O[C@H](CO)[C@@H](O)[C@H](O)[C@@H]1O)C(=O)N[C@@H](CCCCNC(=O)CO[C@H]1O[C@H](CO)[C@@H](O)[C@H](O)[C@@H]1O)C(=O)N[C@@H](CCCCNC(=O)CO[C@H]1O[C@H](CO)[C@@H](O)[C@H](O)[C@@H]1O)C(N)=O the listed n (stoichiometry of binding) is 0.98

For record CC(=O)N[C@@H](CNC(=O)CO[C@H]1O[C@H](CO)[C@@H](O)[C@H](O)[C@@H]1O)C(=O)N[C@@H](CNC(=O)CO[C@H]1O[C@H](CO)[C@@H](O)[C@H](O)[C@@H]1O)C(=O)N[C@@H](CNC(=O)CO[C@H]1O[C@H](CO)[C@@H](O)[C@H](O)[C@@H]1O)C(N)=O the listed n (stoichiometry of binding) is 1.38

For record CC(=O)N[C@@H](CCCCNC(=O)CO[C@H]1O[C@H](CO)[C@@H](O)[C@H](O)[C@@H]1O)C(=O)NCC(=O)N[C@@H](CCCCNC(=O)CO[C@H]1O[C@H](CO)[C@@H](O)[C@H](O)[C@@H]1O)C(=O)NCC(=O)N[C@@H](CCCCNC(=O)CO[C@H]1O[C@H](CO)[C@@H](O)[C@H](O)[C@@H]1O)C(=O)NCC(=O)N[C@@H](CCCCNC(=O)CO[C@H]1O[C@H](CO)[C@@H](O)[C@H](O)[C@@H]1O)C(N)=O the listed n (stoichiometry of binding) is 0.68

Origin of the recorded values: paper PMC6260803
